Experiment: recombinant UMI read abundance after kanamycin selection (control-corrected) (log10(CPM+1)); higher = more efficient recombination; extreme values may be limits of the assay; sequences stand for … in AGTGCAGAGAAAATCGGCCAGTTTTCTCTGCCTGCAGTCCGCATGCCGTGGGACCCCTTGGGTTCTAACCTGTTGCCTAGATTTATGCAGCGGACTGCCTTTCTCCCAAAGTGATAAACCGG…AGGTTGGTTTCACT; site = the 11-nt donor;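 note: IS621 bridge recombinase in Escherichia coli cells against a fixed T5 target plasmid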
Measurement kind: recombinant UMI read abundance (log10)

Ordered residues: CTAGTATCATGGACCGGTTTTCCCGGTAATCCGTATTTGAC (site CTATTATCTAT)
Value measured: 0
//
Ordered residues: AGGTAGACATGGACCGGTTTTCCCGGTAATCCGTATTTGCC (site AGGTAGACTGG)
Value measured: 2.79
//
Ordered residues: AGCTTCCCATGGACCGGTTTTCCCGGTAATCCGTATTTGTG (site AGTTTCCCTCA)
Value measured: 0.0209
//
Ordered residues: CGAACGTCATGGACCGGTTTTCCCGGTAATCCGTATTTGCG (site CGAACGTCTCG)
Value measured: 2.37
//
Ordered residues: ACCACGCCATGGACCGGTTTTCCCGGTAATCCGTATTTGTA (site CCCACGCCTTA)
Value measured: 0.143
//
Ordered residues: GCGAAGCCATGGACCGGTTTTCCCGGTAATCCGTATTTGGG (site GCGAAACCTCC)
Value measured: 0
//
Ordered residues: ATTGAAACATGGACCGGTTTTCCCGGTAATCCGTATTTGGT (site ATTGACACTAC)
Value measured: 0.0867
//
Ordered residues: GATTGGACATGGACCGGTTTTCCCGGTAATCCGTATTTGTC (site GATTGGACTGA)
Value measured: 0.657
//
Ordered residues: AGGTTGCCATGGACCGGTTTTCCCGGTAATCCGTATTTGTG (site AGGTTCCCTCA)
Value measured: 0.00991
//
Ordered residues: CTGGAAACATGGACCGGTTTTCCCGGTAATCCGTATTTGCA (site CGGGAAACTTG)
Value measured: 0
//
Ordered residues: ACTGGAACATGGACCGGTTTTCCCGGTAATCCGTATTTGAG (site ACTGGAACTCT)
Value measured: 2.11
//
Ordered residues: CTGAATCCATGGACCGGTTTTCCCGGTAATCCGTATTTGGT (site CTGAATCCTAC)
Value measured: 0.615
//
Ordered residues: CAAGCAGCATGGACCGGTTTTCCCGGTAATCCGTATTTGAT (site CAAGCAGCTAC)
Value measured: 0.271
//
Ordered residues: CGTTATACATGGACCGGTTTTCCCGGTAATCCGTATTTGAG (site CGTTAAACTCT)
Value measured: 0
//
Ordered residues: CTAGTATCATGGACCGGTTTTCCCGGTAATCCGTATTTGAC (site ATACTATCTGT)
Value measured: 0.00668
//
Ordered residues: GCAAGTGCATGGACCGGTTTTCCCGGTAATCCGTATTTGTC (site GCAAGTGCTGA)
Value measured: 0
//
Ordered residues: AATGTAGCATGGACCGGTTTTCCCGGTAATCCGTATTTGCT (site AATGTATCTAG)
Value measured: 0.516
//
Ordered residues: CAATTAACATGGACCGGTTTTCCCGGTAATCCGTATTTGTT (site CAATTAACTAA)
Value measured: 0.00834
//
Ordered residues: GGTCCGGCATGGACCGGTTTTCCCGGTAATCCGTATTTGTC (site GGTCCGGCTGA)
Value measured: 0
//
Ordered residues: ACACACCCATGGACCGGTTTTCCCGGTAATCCGTATTTGAC (site ACACAGCCTGT)
Value measured: 0
//
Ordered residues: TGGCTCCCATGGACCGGTTTTCCCGGTAATCCGTATTTGGT (site TGGCTCCCTAC)
Value measured: 0.203
//
Ordered residues: CAATTCTCATGGACCGGTTTTCCCGGTAATCCGTATTTGAA (site CAATACTCTTT)
Value measured: 0.00453
//
Ordered residues: TTAGCAGCATGGACCGGTTTTCCCGGTAATCCGTATTTGTG (site TTAGCCGCTCA)
Value measured: 0.0121
